Target: Beta-2 adrenergic receptor (Homo sapiens)
Test: Adrenergic beta2 receptor (ADRB2) small molecule agonists, cell-based qHTS assay (AID 1963593);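 also: CHO cells stably overexpressing human ADRB2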
Conditions: CHO-ADRB2 cells, cAMP HTRF, 30 min; series mostly up to 92.4 µM
Results filed as inconclusive are left out. Activity calls are given as the source filed them. Calls follow the shape of the full dose curve.
reported property: outcome

compound	result
COCc1cnc(C2=NC(C)(C(C)C)C(=O)N2)c(C(=O)O)c1 (stereo not drawn)	inactive
C=CC(=O)OCCCCO	inactive
CCOP(=O)(N=C1SCCS1)OCC	inactive
[O-][Cl+3]([O-])([O-])O	inactive
C#CCN1C(=O)COc2cc(F)c(N3C(=O)C4=C(CCCC4)C3=O)cc21	inactive
ClCC(Cl)Cl	inactive
CCCN(CCC)c1c([N+](=O)[O-])cc(C(F)(F)F)cc1[N+](=O)[O-]	inactive
NNCCO	inactive
C[C@]12CC[C@H]3[C@@H](CCC4=CC(=O)CC[C@@]43C)[C@@H]1CC[C@@H]2C(=O)O	inactive
SCc1ccco1	inactive
CCSC(C)CC1CC(=O)C(/C(CC)=N/OC/C=C/Cl)=C(O)C1 (stereo not drawn)	inactive
CC(=O)[O-].CC(=O)[O-].[Co+2]	inactive
CCCCCCCCCCCCCCCCCCn1cc[n+](C)c1	inactive

* * *

Assay: p53 small molecule agonists, cell-based qHTS assay with human liver microsomes: qHTS cell viability counter screen (AID 1963579); also: nearly all actives have a fitted effect of over 45% in size
Settings: p53RE-bla HCT-116 viability, ATP luminescence, 16 h, HLM; series mostly up to 66 µM
Results filed as inconclusive are left out. The source made the active and inactive calls. Calls come from the whole dose curve.
Labels: true (1) (active), false (0) (inactive)

compound	group
COC(=O)/C=C(\C)OP(=O)(OC)OC	false (0)
O=C(CBr)c1ccccc1	false (0)
[O-][Br+2]([O-])O	false (0)
NNCCO	false (0)
CCc1ccc(C2CCNCC2)cc1	false (0)
O=S(=O)(O)F	false (0)
C=CCc1ccc(OC(=O)Cc2ccccc2)c(OC)c1	false (0)
CN(CCCC(O)c1cccnc1)N=O (centres undefined)	false (0)
c1csc(-c2ccc(-c3cccs3)s2)c1	false (0)
CCOP(=O)(Sc1ccccc1)Sc1ccccc1	false (0)
Cn1c(CCCC(=O)O)nc2cc(N(CCCl)CCCl)ccc21	false (0)
CCC1(CCC(C)C)C(=O)NC(=O)NC1=O	false (0)
CN(C)C(=O)Oc1cc(OC(=O)N(C)C)cc(C(O)CNC(C)(C)C)c1 (centres undefined)	false (0)
CO/N=C(/C1=NOCCO1)c1ccccc1Oc1ncnc(Oc2ccccc2Cl)c1F	false (0)
ClC(Cl)=C(c1ccc(Cl)cc1)c1ccccc1Cl	false (0)
BrC(Br)C(Br)(Br)Br	false (0)
CN1C2CCC(C)(C)C1CC(OC(=O)C(O)(c1cccs1)c1cccs1)C2 (centres undefined)	false (0)
O=P(O)(O)c1ccccc1	false (0)
c1cc[c]([Sb]([c]2ccccc2)[c]2ccccc2)cc1	false (0)
ClSC(Cl)(Cl)Cl	false (0)
COc1ccc(OC)c(CC(C)N)c1 (centres undefined)	false (0)
CCOCn1c(-c2ccc(Cl)cc2)c(C#N)c(Br)c1C(F)(F)F	true (1)
C(COCC1CO1)OCC1CO1 (centres undefined)	true (1)
O=Cc1ccc2c(c1)OCO2	false (0)
C=C(C)C(=O)[O][Sn]([CH2]CCC)([CH2]CCC)[CH2]CCC	true (1)
CC(=O)OC1(c2ccccc2)CCN(CCc2ccccc2)CC1	false (0)
O=C(CCCN1CCC(n2c(=O)[nH]c3ccccc32)CC1)c1ccc(F)cc1	false (0)
CC(=O)c1ccc(-c2ccccc2)cc1	false (0)
O=c1[nH]c2cc(Cl)ccc2n1C1CCNCC1	false (0)
